test: In vivo kinetics experiment (radioactivity distribution); parameters: species or system Wistar male rat; conditions: 10 min after administration; rat i.v.; mean ± SD
We use 4 % ID/g as the dividing line for Radioactivity distribution Spleen: on or above the line is T, below is F.

                                   compound  class_assignment
0  CC(C)n1c(-c2cncc(Cn3ccnc3)c2)nc2ccc([123I])cc21 [[^123I] 606]                 T
1  COc1cc([123I])cc2c1nc(-c1cncc(Cn3ccnc3)c1)n2C1CC1 [[^123I] 609]                 F
2  Fc1cc2nc(-c3cncc(Cn4ccnc4)c3)n(Cc3ccc([123I])cc3)c2cc1Cl [[^123I] 605]                 F
3  COC(=O)c1cncn1[C@H](C)c1ccc(I)cc1 [[^123I] IMTO, (R)-[^123I]iodometomidate, reference compound]                 F
4  CCn1c(-c2cncc(Cn3ccnc3)c2)nc2ccc([123I])cc21 [[^123I] 608]                 F
5  FCCn1c(-c2cncc(Cn3cncc3[123I])c2)nc2cc(F)c(Cl)cc21 [[^123I] 610]                 F
6  FCCn1c(-c2cncc(Cn3ccnc3)c2)nc2ccc([123I])cc21 [[^123I] 604]                 T
7  Cn1c(-c2cncc(Cn3ccnc3)c2)nc2ccc([123I])cc21 [[^123I] 607]                 T
